All values here come from the supplement of paper PMC10065799.

Molecular target: SHP2-C SH2;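 also: peptide library displayed on the E. coli surface as eCPX fusions, selected cells deep-sequenced, score is each peptide's frequency after selection divided by its frequency in the input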
Assay: SH2 binding enrichment of the phosphorylated peptide, bacterial display (enrichment ratio); higher = better substrate or ligand; peptides without Tyr show the background
MEASURED PROPERTY: SH2 binding enrichment
# answer = number (no unit)

Lookup: Quick check: SH2 binding enrichment of IHADICRWFNI [MARS1_Y344_Y344C] ?
Found: 0.633

Lookup: Input HNLYSYPTKYE [MYO3A_Y1396_H1400Y]
Found: 0.657

Lookup: Input ESPGLYGFLNV [BCR_Y910]
Found: 0.598

Lookup: Input EDEGLYMVRVP [MYOM3_Y343]
Found: 0.628

Lookup: Input ARGTRYRFVSQ [UCN3_Y95_YF]
Found: 0.407

Lookup: Input KIKGWYEKCEP [KRT26_Y119]
Found: 0.693

Lookup: Input AEPTGYSAELS [EZR_Y499]
Found: 0.525

Lookup: Input LFIDSYEKDVA [PGM1_Y521_YF]
Found: 0.728

Lookup: Input DLGIQYKALKP [CTNNA1_Y177]
Found: 0.594

Lookup: Input GAVGNYSGGLA [MGMT_Y158]
Found: 0.622

Lookup: Input LSNPAYRLLLA [DDR1_Y513]
Found: 1.01

Lookup: Input PFAEPYADFGG [APBA1_Y187_S184A_YF]
Found: 0.682

Lookup: Input SAQHHYESLQT [BIN1_Y157_R154Q]
Found: 0.903

Lookup: Input RQNQEYEILLD [KRT39_Y379]
Found: 1.57

Lookup: Input DGTVHYVDEKG [IFT140_Y216]
Found: 0.544

Lookup: Input LGGAMYFLEAE [PKHD1_Y452_YF]
Found: 0.75

Lookup: Input TNDRLYLRSLE [MTM1_Y71_Y68D]
Found: 0.6

Lookup: Input FEPDAYDDLDQ [ELP5_Y302_YF]
Found: 0.807

Lookup: Input EFGFRYELVQY [UGGT2_Y1289_Y1285F]
Found: 0.501

Lookup: Input ISITPYPAILH [IFT80_Y588]
Found: 0.547

Lookup: Input PRSRSYFSTSI [REPS2_Y462_S463F]
Found: 0.906

Lookup: Input SWDKRYCEAGC [ITGA2B_Y197_F202C]
Found: 1.23

---

Test system: AncSZ
Experiment: phosphorylation enrichment, bacterial display (enrichment ratio); higher = better substrate or ligand; peptides without Tyr show the background
Give measured phosphorylation enrichment for each item. Keep answers brief.
# answer = number (no unit)

Lookup: Quick check: phosphorylation enrichment of SSRKEYFIGGG [GYPC_Y126] ?
Found: 0.482

Lookup: Input ITVCDYTNPCT [MYD88_Y276]
Found: 1.66

Lookup: Input FIGRIYLFLTK [GARS1_Y414_YF]
Found: 1.61

Lookup: Input DVVKDYAFVHM [RBM14_Y114]
Found: 0.929

Lookup: Input RIVEIYSRRLQ [GCH1_Y175]
Found: 0.942

Lookup: Input TGVWDYIHVVD [GALE_Y241_R239W]
Found: 1.43

---

Give measured phosphorylation enrichment for each item. Keep answers brief.
Molecular target: Fyn (UniProt P06241)
Sequence (P06241 whole entry, looked up): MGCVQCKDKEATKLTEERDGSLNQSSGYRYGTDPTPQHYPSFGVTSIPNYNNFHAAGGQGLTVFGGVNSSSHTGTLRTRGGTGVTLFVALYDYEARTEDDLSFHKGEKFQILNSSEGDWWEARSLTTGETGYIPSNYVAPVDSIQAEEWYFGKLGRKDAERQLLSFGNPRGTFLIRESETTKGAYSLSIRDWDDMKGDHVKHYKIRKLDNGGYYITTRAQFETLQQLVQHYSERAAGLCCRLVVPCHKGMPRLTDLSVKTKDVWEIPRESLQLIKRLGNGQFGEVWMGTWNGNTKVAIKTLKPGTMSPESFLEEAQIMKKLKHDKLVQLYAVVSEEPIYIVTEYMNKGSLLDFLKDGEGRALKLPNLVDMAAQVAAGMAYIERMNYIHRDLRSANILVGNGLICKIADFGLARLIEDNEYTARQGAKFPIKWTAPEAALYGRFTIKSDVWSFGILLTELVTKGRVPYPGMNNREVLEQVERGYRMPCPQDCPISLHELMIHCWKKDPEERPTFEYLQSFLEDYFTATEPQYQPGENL
Test: phosphorylation enrichment, bacterial display (enrichment ratio); higher = better substrate or ligand; peptides without Tyr show the background
# answer = number (no unit)

Lookup: Quick check: phosphorylation enrichment of IDFARYWHGDD [MMP11_Y162] ?
Found: 0.405

Lookup: Input KKLHEYNTQFQ [PIK3R1_Y452]
Found: 0.39

Lookup: Input INASGYRVGPA [ACSM1_Y477_I479V]
Found: 0.411

---

Molecular target: FGFR1 (UniProt P11362)
Sequence (P11362 whole entry, looked up): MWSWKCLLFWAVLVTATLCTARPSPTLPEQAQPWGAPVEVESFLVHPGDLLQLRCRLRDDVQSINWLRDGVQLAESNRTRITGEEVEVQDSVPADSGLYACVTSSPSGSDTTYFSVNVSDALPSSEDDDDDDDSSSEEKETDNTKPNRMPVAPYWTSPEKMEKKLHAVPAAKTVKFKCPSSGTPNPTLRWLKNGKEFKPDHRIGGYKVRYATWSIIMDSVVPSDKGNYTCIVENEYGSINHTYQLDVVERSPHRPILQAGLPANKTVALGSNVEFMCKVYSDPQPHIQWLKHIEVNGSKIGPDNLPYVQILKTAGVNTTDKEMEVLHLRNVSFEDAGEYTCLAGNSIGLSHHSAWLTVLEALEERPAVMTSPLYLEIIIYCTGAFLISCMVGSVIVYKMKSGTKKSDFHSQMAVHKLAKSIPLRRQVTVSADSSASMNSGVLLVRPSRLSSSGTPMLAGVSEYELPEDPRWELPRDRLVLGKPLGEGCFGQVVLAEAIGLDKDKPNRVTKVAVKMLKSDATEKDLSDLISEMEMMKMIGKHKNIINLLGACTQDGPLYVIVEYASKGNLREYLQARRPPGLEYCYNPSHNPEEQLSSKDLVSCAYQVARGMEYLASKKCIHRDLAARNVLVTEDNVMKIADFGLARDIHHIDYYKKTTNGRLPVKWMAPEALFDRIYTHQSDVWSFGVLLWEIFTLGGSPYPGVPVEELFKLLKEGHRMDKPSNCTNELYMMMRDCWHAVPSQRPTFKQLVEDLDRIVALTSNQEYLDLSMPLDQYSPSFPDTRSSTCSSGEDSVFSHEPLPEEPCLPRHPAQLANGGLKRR
Experiment: phosphorylation enrichment, bacterial display (enrichment ratio); higher = better substrate or ligand; peptides without Tyr show the background
Could you label it Met if measured phosphorylation enrichment is 0.6 or higher, and Not met otherwise?

Lookup: Item TESNNYIYTTL [FAM83B_Y637_K640T] with phosphorylation enrichment of 0.6 or above?
Found: Met

Lookup: Input FDSPFYRDSLP [TSC1_Y508]
Found: Not met

Lookup: Input FKNGDYNEVMK [LCT_Y1638]
Found: Not met

Lookup: Input ELELLYLDRNS [NYX_Y284]
Found: Not met

Lookup: Input LQIPMYEVQWK [KIT_Y553_K550I]
Found: Met

Lookup: Input WNDLDYVDSRR [GAA_Y407_M408V]
Found: Not met

Lookup: Input LSAPWYLNRIS [HEXA_Y421]
Found: Not met

Lookup: Input RQNNSYTCFTA [SLC20A2_Y386_R382Q_YF]
Found: Met

Lookup: Input LVIIKYLPEWT [PSEN1_Y240_F237I]
Found: Met

Lookup: Input GGMTEYKLVVV [KRAS_Y4]
Found: Met

Lookup: Input EEGRVYVFHLS [ITGAE_Y549_R552H_YF]
Found: Not met

Lookup: Input HNLYSYPTKYE [MYO3A_Y1396_H1400Y]
Found: Met

Lookup: Input KMGNIYRTEFG [MRPL3_Y265_YF]
Found: Not met

Lookup: Input EDEGLYMVRVP [MYOM3_Y343]
Found: Not met

Lookup: Input HDRGNYVQLNM [RECQL4_Y353_R355Q]
Found: Met

Lookup: Input VDSNPYSHLMA [UBA5_Y53_R55H]
Found: Not met

Lookup: Input ALAHEYHGGGG [HBB_Y146_K145E]
Found: Not met

---

Target: FGFR1 (UniProt P11362)
Assay: phosphorylation enrichment, bacterial display (enrichment ratio); higher = better substrate or ligand; peptides without Tyr show the background
Give measured phosphorylation enrichment for each item. Keep answers brief.
# answer = number (no unit)

Lookup: Report phosphorylation enrichment for GSETPYMDRTP [ESS2_Y335_V336M] tested on FGFR1 (UniProt P11362).
Found: 0.431

Lookup: Input QELRRYLKSGV [MICA_Y194]
Found: 0.582

Lookup: Input SEEVTYATLTF [CLEC12B_Y7]
Found: 1.49

Lookup: Input RRGMPYGGLGD [TGM1_Y312_R315L]
Found: 0.445

Lookup: Input RFVTRHIFNRE [HLA-DQB1_Y62_Y62H_YF]
Found: 0.584

Lookup: Input IKAGAYDFPSL [CAMK2A_Y230_P235L]
Found: 0.41

Lookup: Input SSQILYKLEQS [THADA_Y701_V699I]
Found: 0.4

Lookup: Input ASKEPYFVRCI [MYO1D_Y585_YF]
Found: 0.449

Lookup: Input KGEDFYCVTCP [FHL1_Y149_H154P]
Found: 1.15

Lookup: Input VVPGSYDRLRV [IFT172_Y260_L257P]
Found: 0.394

Lookup: Input PADSGYPAFLG [ATP6V1A_Y374_YF]
Found: 0.981

Lookup: Input ASQEEYSAMRD [KRAS_Y64_G60S]
Found: 0.714

Lookup: Input RRGLLYDSDEE [MCM2_Y137]
Found: 0.898

Lookup: Input IVFVICDEVVK [SLC25A1_Y297_Y297C]
Found: 0.484

Lookup: Input DLLMQYPKAQG [FAM83C_Y600]
Found: 0.341

Lookup: Input GTGTAYLCGVK [ALPL_Y117_A114G]
Found: 0.446

Lookup: Input TESNNYIYKTL [FAM83B_Y637]
Found: 0.625

Lookup: Input SLLLSYFLIKW [NUP160_Y773_P768S_YF]
Found: 0.732

Lookup: Input LANNEYFFRVC
Found: 1.31

Lookup: Input TDGIAYEFRVI
Found: 0.507

Lookup: Input FSNKLYFQLEQ [PDPR_Y109_YF]
Found: 3.05

---

Target: MERTK (UniProt Q12866)
Sequence (Q12866 whole entry, looked up): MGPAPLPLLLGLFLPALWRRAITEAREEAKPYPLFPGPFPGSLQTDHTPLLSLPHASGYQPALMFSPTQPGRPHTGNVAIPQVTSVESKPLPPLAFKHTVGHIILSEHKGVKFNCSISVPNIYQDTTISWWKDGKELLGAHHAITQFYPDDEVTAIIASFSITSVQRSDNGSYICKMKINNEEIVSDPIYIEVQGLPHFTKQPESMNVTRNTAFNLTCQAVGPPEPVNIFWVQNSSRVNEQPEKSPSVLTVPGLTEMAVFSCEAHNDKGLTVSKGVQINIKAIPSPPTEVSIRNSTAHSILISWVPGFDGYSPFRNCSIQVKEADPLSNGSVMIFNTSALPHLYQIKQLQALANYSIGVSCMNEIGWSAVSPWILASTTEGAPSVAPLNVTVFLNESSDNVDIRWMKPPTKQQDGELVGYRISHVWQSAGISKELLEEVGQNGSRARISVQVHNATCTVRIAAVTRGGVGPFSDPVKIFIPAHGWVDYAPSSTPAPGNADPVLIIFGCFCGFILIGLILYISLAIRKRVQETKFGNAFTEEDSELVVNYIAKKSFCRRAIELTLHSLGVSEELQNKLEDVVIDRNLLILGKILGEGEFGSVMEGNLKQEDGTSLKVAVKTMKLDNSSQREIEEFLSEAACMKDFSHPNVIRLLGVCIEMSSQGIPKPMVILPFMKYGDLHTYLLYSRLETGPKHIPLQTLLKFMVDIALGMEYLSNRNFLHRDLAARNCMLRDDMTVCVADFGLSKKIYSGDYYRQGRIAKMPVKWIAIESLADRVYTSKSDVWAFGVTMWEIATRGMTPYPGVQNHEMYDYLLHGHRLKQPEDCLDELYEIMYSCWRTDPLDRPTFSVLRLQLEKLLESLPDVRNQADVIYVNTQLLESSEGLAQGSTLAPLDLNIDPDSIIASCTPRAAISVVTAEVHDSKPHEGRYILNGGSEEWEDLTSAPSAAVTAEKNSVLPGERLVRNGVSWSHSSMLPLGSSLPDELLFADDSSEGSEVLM
Experiment: phosphorylation enrichment, bacterial display (enrichment ratio); higher = better substrate or ligand; peptides without Tyr show the background
MEASURED PROPERTY: phosphorylation enrichment
# answer = number (no unit)

Lookup: Quick check: phosphorylation enrichment of ANNPLYKEATS [ITGB3_Y773] ?
Found: 0.316

Lookup: Input TNRSFYFKPSL [NUP153_Y382_V381F]
Found: 2.6

Lookup: Input VKPENDRRLDI [VHL_Y175_Y175D]
Found: 0.531

Lookup: Input HNLDYYKKTTN [FGFR3_Y648]
Found: 0.423

---

Target: Fyn (UniProt P06241)
Experiment: phosphorylation enrichment, bacterial display (enrichment ratio); higher = better substrate or ligand; peptides without Tyr show the background
MEASURED PROPERTY: phosphorylation enrichment
# answer = number (no unit)

Lookup: Quick check: phosphorylation enrichment of TSQSQYFSFRE [CCDC170_Y323] ?
Found: 3.07

Lookup: Input EEQFFYEKAIL [BCCIP_Y257_E254Q]
Found: 0.466

Lookup: Input VHLYAYDWISI [BEST1_Y227_G222V]
Found: 1.18

Lookup: Input SLESAYPEVSQ [TTF1_Y357_G360V]
Found: 0.447

Lookup: Input SLLLSYFLIKW [NUP160_Y773_P768S_YF]
Found: 0.589

Lookup: Input PSDPSYEDTRE [BMPR1A_Y467_M470T]
Found: 0.887

Lookup: Input PLRAYYLIARV [HLCS_Y635_D634Y]
Found: 0.571

Lookup: Input WDLPEYSYKDP [ITGA3_Y237_S235P]
Found: 1.12

Lookup: Input TTKGAYSLSIR [YES1_Y194]
Found: 0.406

Lookup: Input HLQQSNLPRGT [TEX45_Y396_Y396N]
Found: 0.445

Lookup: Input KFLENYFDLKK [MMP3_Y41_YF]
Found: 0.448

Lookup: Input EWLRRYLKNGK [HLA-C_Y195_E197K]
Found: 0.439

Lookup: Input SKEPFYVHCIK [MYO1D_Y586_R588H_YF]
Found: 0.44

Lookup: Input RAILDYIASKF [GSTA3_Y74_N73D_YF]
Found: 0.433

Lookup: Input NDEDIYKGLPD [VAV3_Y141]
Found: 0.879

Lookup: Input AHAGKYGAEAL [HBA1_Y25_E24K]
Found: 0.423

Lookup: Input ANAYIYVVQLP [L1CAM_Y420]
Found: 0.841

Lookup: Input KEAALYPHLPP [SQSTM1_Y383]
Found: 0.391

Lookup: Input NELTYYCYKKD [CD59_Y87_C89Y]
Found: 3.84

Lookup: Input QAIDEYEKWLE [MAP9_Y603_N601D]
Found: 0.66

Lookup: Input TTPGPYRSIFF [MPG_Y71_YF]
Found: 0.514

Lookup: Input MKKMHYVDPDR [ST3GAL5_Y99_H104R]
Found: 0.395

Lookup: Input REQREYLEQLN [CCDC88B_Y1277_D1279E]
Found: 0.531
